Tested on: Ba/F3 cells expressing EGFR mutations
measurement description: Cell proliferation assay, Ba/F3 cells expressing EGFR mutations (CellTiter-Glo, 72 hours)
Type: cell-based
experimental parameters: BaF3 cells, EGFR L858R-T790M, CellTiter-Glo, read-out: L858R-T790M/BaF3 GI50
Provide the recorded GI50 for the entries that follow.
Answers are plain numbers, in nM.

Answered examples (4):
[[record]]
compound = "Cn1ncc2c1OCCN1CC3CCC(C3)(C1)n1c(nc3ccc(N4CC(N5CCOCC5)C4)cc31)NC(=O)c1cc-2c(=O)n(C)c1 (single isomer, unassigned) [Example A69A]"
measure_unit = "nM"
measured_result = 1530

[[record]]
compound = "CN1C2CC1CN(c1ccc3nc4n(c3c1)C13CCC(CN(CCOc5c(cnn5C)-c5cc(cn(C)c5=O)C(=O)N4)C1)C3)C2 (single isomer, unassigned) [Example A98A]"
measure_unit = "nM"
measured_result = 343

[[record]]
compound = "CN1CCC2(CCN(c3ccc4nc5n(c4c3)C34CCC(CN(CCOc6c(cnn6C)-c6cc(cn(C)c6=O)C(=O)N5)C3)C4)C2)C1 (single isomer, unassigned) [Example A81B]"
measure_unit = "nM"
measured_result = 12

[[record]]
compound = "Cn1ncc2c1OCCN1CC3CCC(C3)(C1)n1c(nc3ccc(N4CCN(C5CC5)CC4)cc31)NC(=O)c1cc-2c(=O)n(C)c1 (single isomer, unassigned) [Example A83A]"
measure_unit = "nM"
measured_result = 1130


Next compound, please.
Form field: reported GI50 of COCCN(C)c1ccc2nc3n(c2c1)C12CCC(CN(CCOc4c(cnn4C)-c4cc(cn(C)c4=O)C(=O)N3)C1)C2 (single isomer, unassigned) [Example A90A]
977

----------
system name: EGFR Exon19Del/T790M (Homo sapiens, UniProt P00533, DEL746-750/T790M)
Construct: purchased Carna Bio
Sequence (P00533 with tags, fused parts or gaps DEL746-750/T790M limits assumed): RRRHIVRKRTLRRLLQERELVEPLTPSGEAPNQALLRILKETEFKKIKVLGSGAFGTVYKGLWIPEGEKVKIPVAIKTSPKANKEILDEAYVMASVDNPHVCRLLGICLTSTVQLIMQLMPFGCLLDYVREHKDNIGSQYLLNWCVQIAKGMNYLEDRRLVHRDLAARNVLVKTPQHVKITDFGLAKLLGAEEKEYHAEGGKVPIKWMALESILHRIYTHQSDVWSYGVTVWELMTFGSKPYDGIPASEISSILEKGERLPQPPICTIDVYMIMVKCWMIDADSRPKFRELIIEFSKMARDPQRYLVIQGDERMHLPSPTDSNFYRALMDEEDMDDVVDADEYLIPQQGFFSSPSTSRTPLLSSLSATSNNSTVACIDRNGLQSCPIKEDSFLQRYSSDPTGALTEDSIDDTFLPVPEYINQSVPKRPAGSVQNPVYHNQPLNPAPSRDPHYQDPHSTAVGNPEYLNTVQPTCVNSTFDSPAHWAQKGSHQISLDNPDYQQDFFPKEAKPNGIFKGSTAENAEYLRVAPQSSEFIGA
measurement description: Inhibition of EGFR Exon19Del/T790M biochemical enzymatic activity (HTRF)
experimental parameters: EGFR Del19-T790M, 1 mM ATP, 1 h, room temperature, read-out: IC50 (nM) @Del19-T790M
property name: IC50

Answered examples (5):
[[record]]
compound = "COCCN(C)c1ccc2nc3n(c2c1)C12CCC(CN(CCOc4c(cnn4C)-c4cc(cn(C)c4=O)C(=O)N3)C1)C2 (single isomer, unassigned) [Example A90A]"
system_name = "EGFR Exon19Del/T790M (Homo sapiens, UniProt P00533, DEL746-750/T790M)"
measured_result = "> 5000 nM"

[[record]]
compound = "Cn1ncc2c1OCCN1CC(CCC1(C)C)n1c(nc3ccc(N4CCOCC4)cc31)NC(=O)c1cc-2c(=O)n(C)c1 (stereo not drawn)"
system_name = "EGFR Exon19Del/T790M (Homo sapiens, UniProt P00533, DEL746-750/T790M)"
measured_result = "89 nM"

[[record]]
compound = "CC1CCCCOc2c(cnn2C)-c2cc(cn(C)c2=O)C(=O)Nc2nc3ccc(N4CCN(C)CC4)cc3n21 (stereo not drawn)"
system_name = "EGFR Exon19Del/T790M (Homo sapiens, UniProt P00533, DEL746-750/T790M)"
measured_result = "29 nM"

[[record]]
compound = "CN(C)C1CCN(c2ccc3nc4n(c3c2)C23CCC(CN(CCOc5c(cnn5C)-c5cc(cn(C)c5=O)C(=O)N4)C2)C3)CC1(F)F (single isomer, unassigned) [Example A97B]"
system_name = "EGFR Exon19Del/T790M (Homo sapiens, UniProt P00533, DEL746-750/T790M)"
measured_result = "4.9 nM"

[[record]]
compound = "C[C@@H]1CCCOc2c(cnn2C)-c2cc(cn(C)c2=O)C(=O)Nc2nc3ccc(N4CCN(C)CC4)c(Cl)c3n2C1"
system_name = "EGFR Exon19Del/T790M (Homo sapiens, UniProt P00533, DEL746-750/T790M)"
measured_result = "2.3 nM"


Next compound, please.
Form field: reported IC50 of C[C@@H]1CCCOc2c(cnn2C)-c2cc(cn(C)c2=O)C(=O)Nc2nc3ccc(N4CCC(N5CCN(C)CC5)C4)cc3n2C1 (stereo partly drawn)
3.4 nM
